# SYSTEM: human CCR6 (Homo sapiens, UniProt P51684)
# Construct: expressed in transfected cells; host or cells: HEK-293
# Sequence (P51684 whole entry): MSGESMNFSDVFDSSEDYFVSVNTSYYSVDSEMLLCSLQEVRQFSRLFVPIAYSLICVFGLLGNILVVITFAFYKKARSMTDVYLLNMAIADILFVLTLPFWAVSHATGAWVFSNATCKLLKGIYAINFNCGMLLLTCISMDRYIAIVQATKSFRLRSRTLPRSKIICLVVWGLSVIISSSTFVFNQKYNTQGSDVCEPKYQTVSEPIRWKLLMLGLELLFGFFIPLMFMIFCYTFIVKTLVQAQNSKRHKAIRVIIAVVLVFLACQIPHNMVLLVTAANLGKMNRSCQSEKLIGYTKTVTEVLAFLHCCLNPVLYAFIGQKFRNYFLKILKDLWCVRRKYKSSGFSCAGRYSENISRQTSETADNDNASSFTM
# ASSAY_DETAILS: FLIPR assay (inhibition of CCL20-induced calcium signal)
# Assay type: cell-based
# MEASUREMENT_CONTEXT: HEK-293 cells expressing human CCR6; mean values where determined several times; read-out: FLIPR IC50
pIC50: −log10 of the molar value.
MEASUREMENT_TYPE: pIC50

1. CC(C)c1ccc([C@](O)(c2cncc(-c3noc(C4CC(=O)N(Cc5ccccc5)C4)n3)c2)C2(C)CN(C)C2)cc1 (stereo partly shown)    7.90
2. Cc1cncc(C(C)(O)CCc2cncc([C@@](O)(c3ccc(C(C)C)cc3)C3(C)CN(C)C3)c2)c1 (stereo partly shown)    6.93
3. CN1CC(C)(C(O)(c2ccc(OC(F)(F)F)cc2)c2cnc(Oc3ccccc3)nc2)C1 (stereo not shown)    6.79
4. CC(C)c1ccc([C@](O)(c2cncc(N3C[C@@H](C)O[C@H](C)C3)c2)C2(C)CN(C)C2)cc1    7.23
5. CC(C)c1ccc([C@](O)(c2cncc(C#CC3(O)CC3)c2)C2(C)CN(C)C2)cc1    7.35
6. Cc1ncc(C2CC(=O)N(c3cncc([C@@](O)(c4ccc(C(C)C)cc4)C4(C)CN(C)C4)c3)C2)s1 (stereo partly shown)    6.76
7. CC(C)c1ccc(C(O)(c2cncc(C3CC3)c2)C2(C)CN(C)C2)cc1 (stereo not shown)    7.37
